Recorded measurements of Tm, one per entry
Assay Summary: melting temperature; fluorescence melt of hairpins on a sequencing array, two-state fit, raised by 9.35 °C to match UV melts
Settings: sodium 0.088 M
Numeric only. Scale: °C

# lookup: Tm of GCCAGGCGAAAGCCTCGC ((.((((....)))).))
54

Requested field: Tm. Item: GGGACCGAAAGGTGGCCC ((((((....)))..)))
45.5

---

Assay Summary: melting temperature; fluorescence melt of hairpins on a sequencing array, two-state fit, raised by 9.35 °C to match UV melts
Settings: sodium 0.088 M
Parameter: Tm (°C)
Note: unit °C is implicit; provide only the numeric part.

Study these solved cases before continuing.
Any idea what Tm was measured for GTTAGTGGAAACGCTAAC (((((.(....).))))) ?
45.3

What value of Tm has been reported for the following sequence? CGGGCGGAAACGCGTCCG ((((((....)))..)))
53

Param item = GATCGACTCTTCGATC ((((((....)))))) ; retrieve measured Tm.
52.7

# Tm lookup, item GGGTACGAAAGTACTCCC ((((((....)))..)))
45.6

For the sequence GGTGGTGCGAAAGCAACC (((..(((....)))))) , what Tm is on record?
53.3

GET /values?readout=Tm&item= GAATCGCGAAAGCGTTC (((.(((....))))))
42

Suppose we examine the sequence GCTATAACGAAAGTTAGC (((..(((....)))))) ; what Tm value has been reported?
37.5

Looking for the measured Tm of GCCCGGCGAAAGCGCGGC (((..((....))..))) , can you help?
61.7

Which Tm is reported for this sequence? GCTTAAGGAAACTCAAGC ((((.((....)).))))
28.3

Fill blank: measured Tm of the sequence GCCCCCTCGAAAGAGGGC (((..(((....)))))) is ____.
37.6

Next:
Can you look up the measured Tm of GCCCCCGGAAACGAGGGC ((((.((....)).)))) for me?
56

Reported Tm, sequence GACGTGGGAAACTGCGTC ((((..(....)..)))) : ____
47.6

Recorded Tm for GCACGGCGAAAGCAGCGC ((.(.((....)).).)) , please?
57.2

Record request: Tm value, item GCGTAGCGAAAGCCGCGC (((..((....))..)))
61.6

Could you tell me which Tm is on file for GGTTAGGGAAACCTAGCC ((.((((....)))).)) ?
46.3

# query: Tm of entry GCGTCCGAAAGGATACGC ((((((....)))..)))
55.5

---

Assay Summary: folding enthalpy; higher = less favourable; fluorescence melt of hairpins on a sequencing array, two-state fit
Settings: sodium 0.088 M
Measured folding enthalpy values are reported for all entries that follow.
Just the number please, in kcal/mol, no unit attached.

Example cases with answers are listed next.
Returns the measured folding enthalpy for the input sequence. Input: GGGCATCGAAAGATTCCC (((.(((....))).)))
-27.7

Fill in the blank: the reported folding enthalpy of GTTGCACGAAAGTGAAC (((.(((....)))))) is ____.
-14.1

// returns reported folding enthalpy for input GAGATCCGAAAGGACTC (((.(((....))))))
-18.9

Continuing:
Value lookup for folding enthalpy; key = TAGGCGAAAGCCTA (((((....)))))
-12.2

State the recorded folding enthalpy for this entry: GATCAATCTCTTGATC ((((((....))))))
-30.1

Consider the sequence GATCGGAGCACCGATC ((((((....)))))) and give its measured folding enthalpy.
-34.3

// folding enthalpy lookup, key: GCATCTCGAAAGAGTGC (((.(((....))))))
-49.8

Form field: reported folding enthalpy of GGGACTGGAAACAGTCCC (((((((....)))))))
-37.8

---

Quick reference: folding enthalpy of the listed items.
Assay Summary: folding enthalpy; higher = less favourable; fluorescence melt of hairpins on a sequencing array, two-state fit
Settings: sodium 0.088 M
A number alone suffices; assume kcal/mol.

Sample answers from the record:
// query folding enthalpy value for entry GTAGACCCGAAAGGGTAC (((..(((....))))))
-9.26

Which folding enthalpy reading was recorded for the sequence CGCATTCGGAAACGAGCG (((..(((....)))))) ?
-25.9

Fill in the blank: the reported folding enthalpy of GTAAATGGAAACGTTTAC (((((.(....).))))) is ____.
-32.9

New cases:
Quick check: folding enthalpy of GGACTCGAAAGAGTTTCC ((((((....)))..))) ?
-13.8

Given the sequence GTTGATCGAAAGATTAAC (((.(((....))).))) , what is its reported folding enthalpy?
-30.6

For the sequence shown here, GATACCGAAAGGTATATC ((((((....)))..))) , give the reported folding enthalpy.
-16.3

---

Assay Summary: melting temperature; fluorescence melt of hairpins on a sequencing array, two-state fit, raised by 9.35 °C to match UV melts
Settings: sodium 0.088 M
Quick rule: Tm of at least 50 °C means met, below that means not met.

Is reported Tm greater than or equal to 50 °C here: GCATGCGAAAGCATTGC ((((((....))).)))
met

Has GATTGCGGAAACGTAATC ((((.((....)).)))) a recorded Tm greater than or equal to 50 °C?
not met

// inclusive: Tm at least 50 °C? input: GATCAAGTGCTTGATC ((((((....))))))
not met

Check if Tm >= 50 °C (inclusive). Item: GCGACAGGAAACTACCGC (((..((....))..)))
not met

---

Assay Summary: melting temperature; fluorescence melt of hairpins on a sequencing array, two-state fit, raised by 9.35 °C to match UV melts
Settings: sodium 0.088 M
Each entry below carries its reported Tm.
Answer with the number, then the unit.

// known answers, use as guide
Data request, read-out Tm, for GGTAAACGAAAGTTACC (((.(((....))))))
46 °C

GET /values?readout=Tm&item= GATCCTATAAGGATC ((((((...))))))
55.2 °C

May I ask what Tm has been recorded for GGCCCAGCGAAAGCTGCC (((..(((....)))))) ?
36 °C

Here is another sequence to look at.
Could you share which Tm value was measured for GTCGTCGAAAGACGGAC ((((((....))).))) ?
56.2 °C

---

Assay Summary: melting temperature; fluorescence melt of hairpins on a sequencing array, two-state fit, raised by 9.35 °C to match UV melts
Settings: sodium 0.088 M
Parameter: Tm (°C)
Return type: number; implicit unit °C.

Record request: Tm value, item GCGAGAGATCGC ((((....))))
50.3

Can you look up the measured Tm of GCCAGGCGAAAGCATCGC ((.(.((....)).).)) for me?
36.1

Which Tm is listed for GATCCATATCTGGATC ((((((....)))))) ?
49.7

Continuing:
Which Tm is listed for GATCTTCGTTAAGATC ((((((....)))))) ?
43

---

Assay Summary: folding enthalpy; higher = less favourable; fluorescence melt of hairpins on a sequencing array, two-state fit
Settings: sodium 0.088 M
Parameter: folding enthalpy (kcal/mol)
Please reply with the bare figure in kcal/mol and do not write the unit itself.

Which folding enthalpy value is on record for GTCATCGGAAACGATAAC ((.((((....)))).)) ?
-19.7

Would you mind telling me what folding enthalpy value was observed for GGAACCGGAAACGGTCCC ((.((((....)))).)) ?
-19.7

Which folding enthalpy is reported for this sequence? GCAACATCGAAAGATTGC (((..(((....))))))
-19.8

# query: folding enthalpy of entry GGGCTCGGAAACGGGCTC (.((.((....)).)).)
-20.2

Please find the next sequence below.
Could you tell me which folding enthalpy is on file for GTAGAGGGAAACCCCTAC ((((.((....)).)))) ?
-20.4

---

Tm reference
Assay Summary: melting temperature; fluorescence melt of hairpins on a sequencing array, two-state fit, raised by 9.35 °C to match UV melts
Settings: sodium 0.088 M
Write the value in °C as a bare number.

Bench note: what Tm did GCAGCAGGAAACTGCCGC ((.((((....)))).)) show?
50.5

Return reported Tm; argument: GCATCACGAAAGTGGTGC (((.(((....))).)))
64.3

I would be grateful if you could share the reported Tm for GCATCGGGAAACCAATGC ((((.((....)).)))) .
42.2

// lookup Tm for GTATAGGGAAACTTATAC (((((.(....).)))))
27.7

Quick one: Tm for GACAGCGAAAGCTTAGTC ((((((....)))..))) ?
38.1

***
Consider the sequence GTCTATGGAAACACAGAC ((((.((....)).)))) and give its measured Tm.
31.6

What value of Tm has been recorded for this entry: GTCTTCGGAAACGAGGAC (((.(((....))).)))
49.7

Report Tm for GAGAACGAAAGTTCCTC ((((((....))).))) please.
42.7

Quick check: Tm of GGGCTAGGAAACTAGCTC (.(((((....))))).) ?
50.9

Form field: reported Tm of GCCAGACGAAAGTCGGGC (((.(((....))).)))
68.6

Would you kindly share the measured Tm for GTCCCAGGAAACTAGGAC ((((.((....)).)))) ?
35.9

Field request: Tm | item: GATCCAAGAGTGGATC ((((((....))))))
46

Recorded Tm for GCTGCGCGAAAGCTCGGC ((.(.((....)).).)) , please?
48.3

Query: Tm; subject: GCCCTCGAAAGAGGTGGC ((((((....)))..)))
48.4

Which Tm is listed for GCGACGGGAAACCGCCAC (.(.(((....))).).) ?
31.9
